test: Ratio of polynucleotide/mRNA to lipid (wt/wt); format: physicochemical; conditions: particles of Example 31; total lipids calculated from phospholipid amount and compositional ratio (Table 3)
Each entry below carries its reported Ratio of polynucleotide to lipid siRNA/lipid.
Enter the number, and then the unit.

// worked examples, Ratio of polynucleotide to lipid siRNA/lipid included
> print(dat)
                                   molecule       result
1  CCCCC/C=C\C/C=C\CCCCCCCCC(CCCCCCCC/C=C\C/C=C\CCCCC)OC(=O)OCCCN(C)C  0.109 wt/wt
2  CCCCC/C=C\C/C=C\CCCCCCCC(CCCCCCC/C=C\C/C=C\CCCCC)OC(=O)OCCCCN(C)C  0.099 wt/wt
3  CCCCC/C=C\C/C=C\CCCCCCCC(CCCCCCC/C=C\C/C=C\CCCCC)OC(=O)OCCCN(C)C  0.099 wt/wt

Let's switch to this molecule now.
Query: Given CCCCC/C=C\C/C=C\CCCCCCCCC(CCCCCCCC/C=C\C/C=C\CCCCC)OC(=O)OCCN(C)C [Reference Example 2, reference compound] , respond with its Ratio of polynucleotide to lipid siRNA/lipid.
Result: 0.104 wt/wt

---

assay: Ratio of polynucleotide/mRNA to lipid (wt/wt); assay type: physicochemical; details: Example 55: particles prepared as in Example 31
Each entry below carries its reported Ratio of polynucleotide to lipid siRNA/lipid.
Write the value in wt/wt as a bare number.

// worked examples, Ratio of polynucleotide to lipid siRNA/lipid included
> print(dat)
                                   molecule  recorded.number
1  CCCCCC[C@H](C/C=C\CCCCCCCCC(CCCCCCCC/C=C\C[C@@H](CCCCCC)OC(C)=O)OC(=O)OCCCN(C)C)OC(C)=O            0.077
2  CCCCCC[C@H](C/C=C\CCCCCCCC(CCCCCCC/C=C\C[C@@H](CCCCCC)OC(=O)CC)OC(=O)OCCCN(C)C)OC(=O)CC            0.101
3  CCCCC/C=C\C/C=C\CCCCCCCCC(CCCCCCCC/C=C\C/C=C\CCCCC)OC(=O)OCCN(C)C [Reference Example 2, reference compound]            0.055

Let's switch to this molecule now.
Query: Given CCCCCCCCCCCCC(CCCCCCC/C=C\C[C@@H](CCCCCC)OC(C)=O)OC(=O)OCCCN(C)C (stereo partly shown) , respond with its Ratio of polynucleotide to lipid siRNA/lipid.
Result: 0.075

---

assay: Rate of encapsulation of polynucleotide/mRNA (Quant-iT RiboGreen, with and without Triton X-100); format: physicochemical; conditions: particles of Example 31: DSPC:Chol:LP:PEG-C-DMA=20:48:30:2, CT-157/CT-169 double-stranded polynucleotide
Each entry below carries its reported Rate of polynucleotide encapsulation.
Write the value in % as a bare number.

Query: Given `CCCCC/C=C\C/C=C\CCCCCCCC(CCCCCCC/C=C\C/C=C\CCCCC)OC(=O)OCCCN(C)C` , respond with its Rate of polynucleotide encapsulation.
Result: 96.3

Query: Given CCCCC/C=C\C/C=C\CCCCCCCCC(CCCCCCCC/C=C\C/C=C\CCCCC)OC(=O)OCCN(C)C [Reference Example 2, reference compound] , respond with its Rate of polynucleotide encapsulation.
Result: 89.0

Query: Given `CCCCC/C=C\C/C=C\CCCCCCCCC(CCCCCCCC/C=C\C/C=C\CCCCC)OC(=O)OCCCN(C)C` , respond with its Rate of polynucleotide encapsulation.
Result: 94.3

Query: Given `CCCCC/C=C\C/C=C\CCCCCCCC(CCCCCCC/C=C\C/C=C\CCCCC)OC(=O)OCCCCN(C)C` , respond with its Rate of polynucleotide encapsulation.
Result: 98.6

Query: Given CCCCC/C=C\C/C=C\CCCCCCCC(CCCCCCCCCC)OC(=O)OCCCN(C)C (centres unmarked) , respond with its Rate of polynucleotide encapsulation.
Result: 96.4

---

experiment: Average particle size of nucleic acid lipid particle (NICOMP 380ZLS); type: physicochemical; conditions: particles of Example 31; volume-average particle size ± deviation
// classify: if (Average particle size < 200 nm) t else f

> print(dat)
                                   compound  answer.label
1  CCCCC/C=C\C/C=C\CCCCCCCC(CCCCCCC/C=C\C/C=C\CCCCC)OC(=O)OCCCCN(C)C             t

Query: Please determine if CCCCC/C=C\C/C=C\CCCCCCCCC(CCCCCCCC/C=C\C/C=C\CCCCC)OC(=O)OCCN(C)C [Reference Example 2, reference compound] is below 200 nm in terms of Average particle size.
Result: t

Query: Please determine if `CCCCC/C=C\C/C=C\CCCCCCCC(CCCCCCC/C=C\C/C=C\CCCCC)OC(=O)OCCCN(C)C` is below 200 nm in terms of Average particle size.
Result: f

Query: Please determine if `CCCCC/C=C\C/C=C\CCCCCCCCC(CCCCCCCC/C=C\C/C=C\CCCCC)OC(=O)OCCCN(C)C` is below 200 nm in terms of Average particle size.
Result: t

Query: Please determine if CCCCC/C=C\C/C=C\CCCCCCCC(CCCCCCCCCC)OC(=O)OCCCN(C)C (centres unmarked) is below 200 nm in terms of Average particle size.
Result: t

---

system: human β-catenin gene; assay: Test Example 2: β-catenin gene expression inhibition in HepG2 cells, 3 days, real-time PCR; type: cell-based; conditions: nucleic acid lipid particle of Example 31 containing the named lipid, read-out: β-catenin gene expression inhibitory activity IC50
Outcome measure: IC50 (nM)
Write the value in nM as a bare number.

// worked examples, IC50 included
> print(dat)
                                   compound  outcome.measure  recorded.number
1  CCCCC/C=C\C/C=C\CCCCCCCCC(CCCCCCCC/C=C\C/C=C\CCCCC)OC(=O)OCCCN(C)C [Example 1]             IC50             0.38
2  CCCCC/C=C\C/C=C\CCCCCCCC(CCCCCCC/C=C\C/C=C\CCCCC)OC(=O)OCCCCN(C)C [Example 3]             IC50             0.35

Let's switch to this compound now.
Query: Given CCCCC/C=C\C/C=C\CCCCCCCC(CCCCCCC/C=C\C/C=C\CCCCC)OC(=O)OCCCN(C)C [Example 2] , respond with its IC50.
Result: 0.47

---

system: human β-catenin gene; experiment: Test Example 3: β-catenin gene expression inhibition in SW480 cells, 4 hours, real-time PCR; format: cell-based; details: nucleic acid lipid particle of Example 31 containing the named lipid, read-out: β-catenin gene expression inhibitory activity IC50
Outcome measure: pIC50
Scale: pIC50 equals -log10([C]), with [C] in mol/L.

Query: Given CCCCC/C=C\C/C=C\CCCCCCCC(CCCCCCCCCC)OC(=O)OCCCN(C)C (stereo not shown) [Example 8] , respond with its pIC50.
Result: 8.08

---

Each entry below carries its reported Rate of polynucleotide encapsulation.
experiment: Rate of encapsulation of polynucleotide/mRNA (Quant-iT RiboGreen, with and without Triton X-100); type: physicochemical; details: Example 55: particles prepared as in Example 31 (β-catenin double-stranded polynucleotide)
Write the value in % as a bare number.

// worked examples, Rate of polynucleotide encapsulation included
> print(dat)
                                   molecule                       outcome.measure  recorded.number
1  CCCCCC[C@H](C/C=C\CCCCCCCC(CCCCCCC/C=C\C[C@@H](CCCCCC)OC(=O)CC)OC(=O)OCCCN(C)C)OC(=O)CC  Rate of polynucleotide encapsulation               97
2  CCCCCCCCCCCCC(CCCCCCC/C=C\C[C@@H](CCCCCC)OC(C)=O)OC(=O)OCCCN(C)C (stereo partly shown)  Rate of polynucleotide encapsulation               97
3  CCCCCC[C@H](C/C=C\CCCCCCCCC(CCCCCCCC/C=C\C[C@@H](CCCCCC)OC(C)=O)OC(=O)OCCCN(C)C)OC(C)=O  Rate of polynucleotide encapsulation               97

Let's switch to this molecule now.
Query: Given CCCCC/C=C\C/C=C\CCCCCCCCC(CCCCCCCC/C=C\C/C=C\CCCCC)OC(=O)OCCN(C)C [Reference Example 2, reference compound] , respond with its Rate of polynucleotide encapsulation.
Result: 94

---

experiment: Average particle size of nucleic acid lipid particle (NICOMP 380ZLS); format: physicochemical; conditions: Example 55: particles prepared as in Example 31; ± deviation
Outcome measure: Average particle size

> print(dat)
                                   compound       result
1  CCCCC/C=C\C/C=C\CCCCCCCCC(CCCCCCCC/C=C\C/C=C\CCCCC)OC(=O)OCCN(C)C [Reference Example 2, reference compound]  165 ± 11 nm
2  CCCCCC[C@H](C/C=C\CCCCCCCC(CCCCCCC/C=C\C[C@@H](CCCCCC)OC(=O)CC)OC(=O)OCCCN(C)C)OC(=O)CC  158 ± 40 nm
3  CCCCCC[C@H](C/C=C\CCCCCCCCC(CCCCCCCC/C=C\C[C@@H](CCCCCC)OC(C)=O)OC(=O)OCCCN(C)C)OC(C)=O  188 ± 45 nm

Let's switch to this compound now.
Query: Given CCCCCCCCCCCCC(CCCCCCC/C=C\C[C@@H](CCCCCC)OC(C)=O)OC(=O)OCCCN(C)C (stereo partly shown) , respond with its Average particle size.
Result: 174 ± 31 nm
